# Tested on: T98G
# Protocol summary: Growth inhibition of AR-overexpressing human T98G cells measured after 48 hrs by MTT assay
# Assay type: functional, cell-based
pIC50: −log10 of the molar value.
Measured pIC50 values are reported for all entries that follow.

- Compound: "COc1ccc(OC)c(COc2cc(NC(=O)c3cc(Cl)cc(Cl)c3)ccc2NS(C)(=O)=O)c1"
  Tgt: "T98G"
  Censor symbol: "="
  pIC50: 7.01
- Compound: "COc1ccc(OC)c(COc2cc(NC(=O)c3ccc(C)c([N+](=O)[O-])c3)ccc2NS(C)(=O)=O)c1"
  Tgt: "T98G"
  Censor symbol: "="
  pIC50: 5.43
- Compound: "COc1ccc(OC)c(COc2cc(NC(=O)c3ccc(C(F)(F)F)cc3C(F)(F)F)ccc2NS(C)(=O)=O)c1"
  Tgt: "T98G"
  Censor symbol: "="
  pIC50: 5.63
- Compound: "CCCCCC(=O)Nc1ccc(NS(C)(=O)=O)c(OCc2cc(OC)ccc2OC)c1"
  Tgt: "T98G"
  Censor symbol: "="
  pIC50: 5.93
- Compound: "COc1ccc(OC)c(COc2cc(NC(=O)c3cccc(C)c3)ccc2NS(C)(=O)=O)c1"
  Tgt: "T98G"
  Censor symbol: "="
  pIC50: 6.37
- Compound: "COc1ccc(OC)c(COc2cc(NC(=O)c3ccc(Cl)cc3)ccc2NS(C)(=O)=O)c1"
  Tgt: "T98G"
  Censor symbol: "="
  pIC50: 7.11
- Compound: "COc1ccc(OC)c(COc2cc(NC(=O)c3ccc(NC(=O)COCC(=O)Nc4ccc(C(=O)Nc5ccc(NS(C)(=O)=O)c(OCc6cc(OC)ccc6OC)c5)cc4)cc3)ccc2NS(C)(=O)=O)c1"
  Tgt: "T98G"
  Censor symbol: "<"
  pIC50: 5.00
- Compound: "COc1ccc(OC)c(COc2cc(NC(=O)c3ccc(Cl)c(Cl)c3)ccc2NS(C)(=O)=O)c1"
  Tgt: "T98G"
  Censor symbol: "="
  pIC50: 5.62
- Compound: "COc1ccc(OC)c(COc2cc(NC(=O)c3ccno3)ccc2NS(C)(=O)=O)c1"
  Tgt: "T98G"
  Censor symbol: "="
  pIC50: 5.40
- Compound: "COc1ccc(OC)c(COc2cc(NC(=O)c3cc(C(F)(F)F)cc(C(F)(F)F)c3)ccc2NS(C)(=O)=O)c1"
  Tgt: "T98G"
  Censor symbol: "="
  pIC50: 5.98
- Compound: "COc1ccc(OC)c(COc2cc(NC(=O)c3ccc(I)cc3)ccc2NS(C)(=O)=O)c1"
  Tgt: "T98G"
  Censor symbol: "="
  pIC50: 7.32
- Compound: "COc1ccc(OC)c(COc2cc(NC(=O)CCCC(=O)Nc3ccc(NS(C)(=O)=O)c(OCc4cc(OC)ccc4OC)c3)ccc2NS(C)(=O)=O)c1"
  Tgt: "T98G"
  Censor symbol: "<"
  pIC50: 5.00
- Compound: "COc1ccc(OC)c(COc2cc(NC(=O)c3ccc(OC)c(OC)c3)ccc2NS(C)(=O)=O)c1"
  Tgt: "T98G"
  Censor symbol: "="
  pIC50: 7.05
